# studyTarget: human V1a receptor (Homo sapiens, UniProt P37288)
# Sequence (P37288 whole entry): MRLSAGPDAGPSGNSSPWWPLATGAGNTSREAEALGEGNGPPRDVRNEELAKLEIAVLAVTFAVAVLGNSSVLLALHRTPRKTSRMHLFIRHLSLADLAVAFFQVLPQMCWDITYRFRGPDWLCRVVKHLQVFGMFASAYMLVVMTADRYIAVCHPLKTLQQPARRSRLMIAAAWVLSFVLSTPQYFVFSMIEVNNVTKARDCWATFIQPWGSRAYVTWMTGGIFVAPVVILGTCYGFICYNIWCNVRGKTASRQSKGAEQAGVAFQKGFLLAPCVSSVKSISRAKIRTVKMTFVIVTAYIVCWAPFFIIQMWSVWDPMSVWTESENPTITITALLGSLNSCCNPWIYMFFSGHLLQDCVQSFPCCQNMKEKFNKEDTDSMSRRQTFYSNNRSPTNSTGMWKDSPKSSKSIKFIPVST
# methodSummary: Cellular in vitro assay for determining vasopressin receptor activity, V1a receptor cell line (photoprotein luminescence)
# runParameters: CHO cell line transfected with human V1a receptor; [Arg8]-vasopressin at EC50; compounds of the invention (Table 1A); read-out: IC50 hV1a
# Protocol: The identification of agonists and antagonists of the V1a and V2 vasopressin receptors from humans, rats and dogs as well as the quantification of the activity of the compounds of the invention is carried out using recombinant cell lines. […] The resulting vasopressin receptor cells react to stimulation of the recombinantly expressed V1a receptors by intracellular release of calcium ions, which can be quantified by the resulting photoprotein luminescence. […]
attributeMeasured: IC50 (nM)
Give just the numeric value; nM need not be written.

Req: Find the recorded IC50 belonging to COc1ccc(F)cc1-n1nc(Cn2nc(-c3ccc(Cl)cc3)n(C[C@H](O)C(F)(F)F)c2=O)nc1C(C)O (single isomer, unassigned) [Example 39] and report it.
Resp: 1.5

Req: Sample `O=c1n(Cc2nc(CO)n(-c3ccccc3Cl)n2)nc(-c2ccc(Cl)cc2)n1C[C@H](O)C(F)(F)F` — what was its IC50?
Resp: 0.4

Req: What value of IC50 has been recorded for this entry: CC(O)c1nc(Cn2nc(-c3ccc(Cl)cc3)n(C[C@H](O)C(F)(F)F)c2=O)nn1-c1ccccc1F (mixture of isomers) [Example 40]
Resp: 1.5

Req: Given the compound CC(O)c1nc(Cn2nc(-c3ccc(Cl)cc3)n(C[C@H](O)C(F)(F)F)c2=O)nn1-c1cc(F)cc(Cl)c1 (single isomer, unassigned) [Example 14] , what is its reported IC50?
Resp: 1.3

Req: Bench note: what IC50 did `O=c1n(Cc2nc(CO)n(-c3cc(F)cc(F)c3)n2)nc(-c2ccc(Cl)cc2)n1C[C@H](O)C(F)(F)F` show?
Resp: 7.6

Req: # lookup: IC50 of CC(O)c1nc(Cn2nc(-c3ccc(Cl)cc3)n(C[C@H](O)C(F)(F)F)c2=O)nn1-c1cccc(F)c1 (mixture of isomers)
Resp: 2.9

Req: Quick check: IC50 of CC(O)c1nc(Cn2nc(-c3ccc(Cl)cc3)n(C[C@H](O)C(F)(F)F)c2=O)nn1-c1ccccc1F (single isomer, unassigned) [Example 42] ?
Resp: 5.1

Req: Given CC(O)c1nc(Cn2nc(-c3ccc(Cl)cc3)n(C[C@H](O)C(F)(F)F)c2=O)nn1-c1cc(Cl)ccc1Cl (mixture of isomers) [Example 49] , state its recorded IC50.
Resp: 1.8

Req: Please look up its IC50: CC(O)c1nc(Cn2nc(-c3ccc(Cl)cc3)n(C[C@H](O)C(F)(F)F)c2=O)nn1-c1cc(F)cc(F)c1 (mixture of isomers) [Example 25]
Resp: 7.2

Req: Param item = CC(O)c1nc(Cn2nc(-c3ccc(Cl)cc3)n(C[C@H](O)C(F)(F)F)c2=O)nn1-c1cc(Cl)ccc1Cl (single isomer, unassigned) [Example 50] ; retrieve measured IC50.
Resp: 1.3

Req: What IC50 value was documented for this compound, CC(O)c1nc(Cn2nc(-c3ccc(Cl)cc3)n(C[C@H](O)C(F)(F)F)c2=O)nn1-c1cc(Cl)cc(Cl)c1 (single isomer, unassigned) [Example 47] ?
Resp: 18.9

Req: Fill blank: measured IC50 of the compound CC(O)c1nc(Cn2nc(-c3ccc(Cl)cc3)n(C[C@H](O)C(F)(F)F)c2=O)nn1-c1cccc(Cl)c1Cl (single isomer, unassigned) [Example 62] is ____.
Resp: 7.8

Req: Any idea what IC50 was measured for CC(O)c1nc(Cn2nc(-c3ccc(Cl)cc3)n(C[C@H](O)C(F)(F)F)c2=O)nn1-c1ccccc1C(F)(F)F (single isomer, unassigned) [Example 73] ?
Resp: 1.1

Req: Entry CC(O)c1nc(Cn2nc(-c3ccc(Cl)cc3)n(C[C@H](O)C(F)(F)F)c2=O)nn1-c1cccc(Cl)c1F (single isomer, unassigned) [Example 54] has what IC50?
Resp: 39.7

Req: Name the recorded IC50 for CC(O)c1nc(Cn2nc(-c3ccc(Cl)cc3)n(C[C@H](O)C(F)(F)F)c2=O)nn1-c1ccc(F)cc1Cl (mixture of isomers) [Example 34] .
Resp: 0.4

Provenance of the data: patent US9771352B2
